- Experimental system: Hco-UNC-49BC (Haemonchus contortus, UniProt D6BK80, D83C)
- Assay overview: two-electrode voltage clamp, Xenopus oocytes
Quantity: EC50 (µM)
All answers are understood in µM, so give the number only.

Supply recorded EC50 for `NCCCC(=O)O` here.
454

====

- Experimental system: Hco-UNC-49BC (Haemonchus contortus, UniProt D6BK80, R159A)
- Assay overview: two-electrode voltage clamp, Xenopus oocytes
Quantity: EC50 (mM)
Expressed in mM, but write only the number.

Consider the compound `NCCCC(=O)O` . State its measured EC50.
5.47

====

- Experimental system: Hco-UNC-49BC (Haemonchus contortus, UniProt D6BK80, R241A)
- Assay overview: two-electrode voltage clamp, Xenopus oocytes
Quantity: pEC50
Quick note: pEC50 values are minus log10 of concentrations in mol/L.

Check the records and state pEC50 for `NCCCC(=O)O`
2.29

====

- Experimental system: Hco-UNC-49BC (Haemonchus contortus, UniProt D6BK80, H137K)
- Sequence (D6BK80 22-496 H137K): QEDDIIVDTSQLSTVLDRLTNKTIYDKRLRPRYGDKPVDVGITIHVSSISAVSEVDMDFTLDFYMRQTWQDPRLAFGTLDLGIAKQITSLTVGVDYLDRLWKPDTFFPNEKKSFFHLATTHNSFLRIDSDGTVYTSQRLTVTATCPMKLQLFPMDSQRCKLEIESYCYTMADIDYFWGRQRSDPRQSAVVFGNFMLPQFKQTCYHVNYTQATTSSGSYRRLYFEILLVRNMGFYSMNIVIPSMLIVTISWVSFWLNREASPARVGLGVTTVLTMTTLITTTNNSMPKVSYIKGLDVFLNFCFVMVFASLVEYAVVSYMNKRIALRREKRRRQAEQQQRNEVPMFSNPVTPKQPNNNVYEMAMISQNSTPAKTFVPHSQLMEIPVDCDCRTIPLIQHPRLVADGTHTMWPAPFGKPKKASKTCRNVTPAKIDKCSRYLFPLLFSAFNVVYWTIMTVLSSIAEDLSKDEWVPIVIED
- Sequence (D6BJF3 22-440 partner): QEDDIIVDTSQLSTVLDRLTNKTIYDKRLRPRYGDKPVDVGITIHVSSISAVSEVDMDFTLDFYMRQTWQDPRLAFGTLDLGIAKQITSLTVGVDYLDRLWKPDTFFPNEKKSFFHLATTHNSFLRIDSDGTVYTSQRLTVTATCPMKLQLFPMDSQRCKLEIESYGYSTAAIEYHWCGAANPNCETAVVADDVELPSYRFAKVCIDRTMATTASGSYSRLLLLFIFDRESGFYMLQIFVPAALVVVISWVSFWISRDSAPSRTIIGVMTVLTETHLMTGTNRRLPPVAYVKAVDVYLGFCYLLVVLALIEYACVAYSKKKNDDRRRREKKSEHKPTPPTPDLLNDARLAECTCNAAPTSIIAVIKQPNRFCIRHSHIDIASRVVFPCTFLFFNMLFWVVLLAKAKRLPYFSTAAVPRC
- Assay overview: two-electrode voltage clamp, Xenopus oocytes
Quantity: pEC50
Remember, pEC50 is on a log scale: it is -log10 of the molar concentration.

Given `NCCCC(=O)O` , respond with its pEC50.
2.38
